Several publications report Ki on Vasopressin V1b receptor (Homo sapiens); those values are gathered here.

Examples from the recorded data:
INSERT INTO measurements (compound, quantity_name, experimental_value) VALUES
  ('CCOc1ccc(OC)cc1C1(N2CC3CN(c4ccncc4)CC3C2)C(=O)N(S(=O)(=O)c2ccc(OC)cn2)c2ccc(C#N)cc21 (racemic)', 'Ki', '< 10 nM'),
  ('COc1ccc(S(=O)(=O)n2c(=O)n(C(C(=O)N3CCN(C4CCN(C)CC4)CC3)c3ccccc3)c3cc(Cl)c(Cl)cc32)c(OC)c1 (stereo not drawn)', 'Ki', '500 to 10000 nM'),
  ('CCOc1nc(Cl)ccc1C1(N2CC3CC2CN3c2ccncc2)C(=O)N(S(=O)(=O)c2ccc(OC)cn2)c2ccc(C#N)cc21 (racemic)', 'Ki', '10 to 50 nM'),
  ('CCOc1ncccc1C1(NC(=O)N2CCN(C3CCN(C4COC4)CC3)CC2)C(=O)N(S(=O)(=O)c2ccccc2)c2ccc(C#N)cc21 (stereo not drawn)', 'Ki', '10 to 100 nM'),
  ('CCCN1CCN(C2CCN(C(=O)C(c3ccc(OC)cc3)n3c(=O)n(S(=O)(=O)c4ccc(OC)cc4)c4ccc(Cl)cc43)C2)CC1 (stereo not drawn)', 'Ki', '< 100 nM'),
  ('CCOc1ccc(OC)cc1C1(N2CCN(c3ccnc(C4CC4)c3)CC2)C(=O)N(S(=O)(=O)c2ccc(OC)c3cccnc23)c2ccc(C#N)cc21 (racemic)', 'Ki', '< 10 nM'),
  ('COc1ccc(CN2CCN(C)CC2)cc1C1(N2CCC[C@H]2c2ncco2)C(=O)N(S(=O)(=O)c2cccs2)c2ccc(Cl)cc21 (stereo partly drawn)', 'Ki', '10 to 100 nM'),
  ('COc1ccc(S(=O)(=O)N2C(=O)C(c3cc(CN4CCN(CCO)CC4)ccc3OC)(N3CCC[C@H]3c3ncco3)c3cc(Cl)ccc32)cc1 (stereo partly drawn)', 'Ki', '< 10 nM'),
  ('CCCN1CCN(C2CCN(C(=O)C(c3ccccc3)n3c(=O)n(S(=O)(=O)c4ccc(OC)cc4)c4ccc(Cl)cc43)C2)CC1 (stereo not drawn)', 'Ki', '< 100 nM'),
  ('CCOc1ccc(OC)cc1C1(N2CCN(c3ccnc(C)c3)CC2)C(=O)N(S(=O)(=O)c2cccc3c(C)ccnc23)c2ccc(C#N)cc21 (racemic)', 'Ki', '< 10 nM');

Lookup: Ki / Vasopressin V1b receptor (Homo sapiens) / CCOc1ccccc1C1(N2CCN(c3ccncc3)CC2)C(=O)N(S(=O)(=O)c2ccccc2OC)c2ccc(C#N)cc21 (stereo not drawn)
50 to 500 nM
